study target: DR4Dw4 (DRA1*0101 DRB1*0401) (Homo sapiens, UniProt P01903+P01911, A100K/A169T/F76Y/I96L/K127E/L162R/M171V/N62H/P40V/Q125Y/R42H/S133A/S149N/S66Y/V115G/V209L/W38E)
procedure details: Competitive binding to MHC-II protein DR4Dw4
Description: Interaction mixtures lacking the peptidomimetic compound and both peptide mimetic compound and MHC-II were used as positive and negative controls, respectively. All interaction mixtures were set up in duplicates and were incubated for 16 hours at room temperature. After washing with PBS, 60 μl of the MHC-II-compound interaction mixtures were transferred from the interaction plate to the appropriate wells of the capture plate and incubated for 2 h at 4° C. […]
Numbered stars: 1 amine (or outer) side, 2 acyl side, 3 side chain; on linkers, the order of the positions; unused ones are H or OH. Square brackets hold non-standard residues; d marks the D form. Peptide text beside a SMILES is read from it. * marks the point of attachment. ξ: configuration not given here. Gly(1-amidinopiperidin-4-yl) = N=C(N)N1CCC([C@H](N)C(=O)O)CC1; X1 = CC(C)c1oc([C@H](CO)N[*:1])nc1C(=O)[*:2]; Pro(3R-Ph) = O=C(O)[C@H]1NCC[C@@H]1c1ccccc1; Met(O) = CS(=O)CC[C@H](N)C(=O)O; Tic = O=C(O)[C@@H]1Cc2ccccc2CN1; Cha = N[C@@H](CC1CCCCC1)C(=O)O; NMe(benzyl) = CN(Cc1ccccc1)*; ξDisc = O=C(O)C1NCc2ccccc21; X4 = OCCOCCN(CCc1ccccc1)*; Nle = CCCC[C@H](N)C(=O)O; X2 = OCCOCCN(Cc1ccccc1)*; X6 = OCCN(CCc1ccccc1)*
property measured: IC50 (nM)
All answers are understood in nM, so give the number only.

A selection of reference data follows.
molecule	unit abbrev	measured result
CCCC[C@H](NC(=O)[C@@H]1Cc2ccccc2CN1C(=O)[C@H](CCCNC(=N)N)NC(=O)[C@H](CC1CCCCC1)NC(C)=O)C(=O)N(CCOCCO)Cc1ccccc1 [Compound P98, Ac-Cha-Arg-Tic-Nle-N(Bn)CH2CH2OCH2CH2OH] (Ac-[Cha]R[Tic][Nle]-X2)	nM	4700
CSCC[C@H](NC(=O)[C@@H]1Cc2ccccc2CN1C(=O)[C@H](CCCNC(=N)N)NC(=O)[C@H](CC1CCCCC1)NC(C)=O)C(=O)N(CCOCCO)CCc1ccccc1 [Compound P96] (Ac-[Cha]R[Tic]M-X4)	nM	5900
CCCC[C@H](NC(=O)[C@@H]1Cc2ccccc2CN1C(=O)[C@@H](NC(=O)[C@H](CC1CCCCC1)NC(C)=O)C1CCN(C(=N)N)CC1)C(=O)N1CC[C@H](c2ccccc2)[C@H]1C(=O)N[C@@H](CO)c1nc(C(=O)N(C)C)c(C(C)C)o1 [Compound P53] (Ac-[Cha][Gly(1-amidinopiperidin-4-yl)][Tic][Nle][Pro(3R-Ph)][X1]-NMe2)	nM	410
CCCC[C@H](NC(=O)[C@@H]1Cc2ccccc2CN1C(=O)[C@H](CCCNC(=N)N)NC(=O)[C@H](CC1CCCCC1)NC(C)=O)C(=O)N(CCO)CCc1ccccc1 [Compound P81, Ac-Cha-Arg-Tic-Nle-N(CH2CH2OH)CH2CH2Ph] (Ac-[Cha]R[Tic][Nle]-X6)	nM	22000

QUERY: # input molecule: CC(=O)N[C@@H](CC1CCCCC1)C(=O)N[C@@H](CCCNC(=N)N)C(=O)N1Cc2ccccc2C[C@H]1C(=O)N[C@@H](CC[S+](C)[O-])C(=O)N1CC[C@H](c2ccccc2)[C@H]1C(=O)N[C@@H](CO)c1nc(C(=O)N(C)C)c(C(C)C)o1 (stereo partly drawn) [Compound P43] (Ac-[Cha]R[Tic][Met(O)][Pro(3R-Ph)][X1]-NMe2) ; wanted: its IC50
RESULT: 320

QUERY: # input molecule: CCCC[C@H](NC(=O)[C@@H]1Cc2ccccc2CN1C(=O)[C@H](CCCNC(=N)N)NC(=O)[C@H](CC1CCCCC1)NC(C)=O)C(=O)N1CC[C@H](c2ccccc2)[C@H]1C(=O)N[C@@H](CO)c1nc(C(=O)N(C)C)c(C(C)C)o1 [Compound P51] (Ac-[Cha]R[Tic][Nle][Pro(3R-Ph)][X1]-NMe2) ; wanted: its IC50
RESULT: 670

QUERY: # input molecule: CSCC[C@H](NC(=O)[C@@H]1Cc2ccccc2CN1C(=O)[C@@H](NC(=O)[C@H](CC1CCCCC1)NC(C)=O)C1CCN(C(=N)N)CC1)C(N)=O [Compound P67, Ac-Cha-Gpg-Tic-Met-NH2] (Ac-[Cha][Gly(1-amidinopiperidin-4-yl)][Tic]M-NH2) ; wanted: its IC50
RESULT: 410

QUERY: # input molecule: CSCC[C@H](NC(=O)[C@@H]1Cc2ccccc2CN1C(=O)[C@@H](NC(=O)[C@H](CC1CCCCC1)NC(C)=O)C1CCN(C(=N)N)CC1)C(=O)N1CC[C@H](c2ccccc2)[C@H]1C(=O)N[C@@H](CO)c1nc(C(=O)N(C)C)c(C(C)C)o1 [Compound P60] (Ac-[Cha][Gly(1-amidinopiperidin-4-yl)][Tic]M[Pro(3R-Ph)][X1]-NMe2) ; wanted: its IC50
RESULT: 230

QUERY: # input molecule: CCCC[C@H](NC(=O)C1c2ccccc2CN1C(=O)[C@H](CCCNC(=N)N)NC(=O)[C@H](CC1CCCCC1)NC(C)=O)C(=O)N(C)Cc1ccccc1 (stereo partly drawn) [Compound P72-1, Ac-Cha-Arg-Disc-Nle-N(Me)Bn] (Ac-[Cha]R[ξDisc][Nle]-{NMe(benzyl)}) ; wanted: its IC50
RESULT: 5200

---

Each record here notes measured IC50.
study target: DR4Dw4 (DRA1*0101 DRB1*0401) (Homo sapiens, UniProt P01903+P01911, A100K/A169T/F76Y/I96L/K127E/L162R/M171V/N62H/P40V/Q125Y/R42H/S133A/S149N/S66Y/V115G/V209L/W38E)
procedure details: Competitive binding to MHC-II protein DR4Dw4
Square brackets hold non-standard residues; d marks the D form. Peptide text beside a SMILES is read from it. * marks the point of attachment. Gly(1-amidinopiperidin-4-yl) = N=C(N)N1CCC([C@H](N)C(=O)O)CC1; Tetrahydroisoquinolin(2-yl) = c1ccc2c(c1)CCN(*)C2; N(Me)CH2CH2Ph = CN(CCc1ccccc1)*; Tic = O=C(O)[C@@H]1Cc2ccccc2CN1; Cha = N[C@@H](CC1CCCCC1)C(=O)O; Nle = CCCC[C@H](N)C(=O)O
All answers are understood in µM, so give the number only.

A selection of reference data follows.
compound	unit abbrev	measured result
CSCC[C@H](NC(=O)[C@@H]1Cc2ccccc2CN1C(=O)[C@H](CCCNC(=N)N)NC(=O)[C@H](CC1CCCCC1)NC(C)=O)C(N)=O [Compound P1, Ac-Cha-Arg-Tic-Met-NH2] (Ac-[Cha]R[Tic]M-NH2)	µM	1.6
CCCC[C@H](NC(=O)[C@@H]1Cc2ccccc2CN1C(=O)[C@@H](NC(=O)[C@H](CC1CCCCC1)NC(C)=O)C1CCN(C(=N)N)CC1)C(=O)N1CCc2ccccc2C1 [Compound P77] (Ac-[Cha][Gly(1-amidinopiperidin-4-yl)][Tic][Nle]-{Tetrahydroisoquinolin(2-yl)})	µM	8.7
CCCC[C@H](NC(=O)C1c2ccccc2CN1C(=O)[C@@H](NC(=O)[C@H](CC1CCCCC1)NC(C)=O)C1CCN(C(=N)N)CC1)C(=O)N(C)Cc1ccccc1 (single isomer, unassigned)	µM	2.3

QUERY: # input compound: CCCC[C@H](NC(=O)[C@@H]1Cc2ccccc2CN1C(=O)[C@H](CCCNC(=N)N)NC(=O)[C@H](CC1CCCCC1)NC(C)=O)C(=O)N(C)CCc1ccccc1 [Compound P83, Ac-Cha-Arg-Tic-Nle-N(Me)CH2CH2Ph] (Ac-[Cha]R[Tic][Nle]-{N(Me)CH2CH2Ph}) ; wanted: its IC50
RESULT: 24

---

procedure details: Stability of compounds in human blood plasma
Assay type: in vitro ADME
Numbered stars: 1 amine (or outer) side, 2 acyl side, 3 side chain; on linkers, the order of the positions; unused ones are H or OH. Square brackets hold non-standard residues; d marks the D form. Peptide text beside a SMILES is read from it. * marks the point of attachment. ξ: configuration not given here. Gly(1-amidinopiperidin-4-yl) = N=C(N)N1CCC([C@H](N)C(=O)O)CC1; X1 = CC(C)c1oc([C@H](CO)N[*:1])nc1C(=O)[*:2]; Pro(3R-Ph) = O=C(O)[C@H]1NCC[C@@H]1c1ccccc1; Met(O) = CS(=O)CC[C@H](N)C(=O)O; N(Me)CH2CH2Ph = CN(CCc1ccccc1)*; Tic = O=C(O)[C@@H]1Cc2ccccc2CN1; Cha = N[C@@H](CC1CCCCC1)C(=O)O; ξDisc = O=C(O)C1NCc2ccccc21; Nle = CCCC[C@H](N)C(=O)O; X2 = OCCOCCN(Cc1ccccc1)*
property measured: Stability (Arbitrary units) Human 24 h
All answers are understood in Arbitrary units, so give the number only.

A selection of reference data follows.
compound	unit abbrev	Stability (Arbitrary units) Human 24 h
CC(=O)N[C@@H](CC1CCCCC1)C(=O)N[C@H](C(=O)N1Cc2ccccc2C[C@H]1C(=O)N[C@@H](CC[S+](C)[O-])C(=O)N1CC[C@H](c2ccccc2)[C@H]1C(=O)N[C@@H](CO)c1nc(C(=O)N(C)C)c(C(C)C)o1)C1CCN(C(=N)N)CC1 (stereo partly drawn) [Compound P47] (Ac-[Cha][Gly(1-amidinopiperidin-4-yl)][Tic][Met(O)][Pro(3R-Ph)][X1]-NMe2)	Arbitrary units	140
CSCC[C@H](NC(=O)C1c2ccccc2CN1C(=O)[C@@H](NC(=O)[C@H](CC1CCCCC1)NC(C)=O)C1CCN(C(=N)N)CC1)C(=O)N1CC[C@H](c2ccccc2)[C@H]1C(=O)N[C@@H](CO)c1nc(C(=O)N(C)C)c(C(C)C)o1 (stereo partly drawn) [Compound P41-1] (Ac-[Cha][Gly(1-amidinopiperidin-4-yl)][ξDisc]M[Pro(3R-Ph)][X1]-NMe2)	Arbitrary units	115
CCCC[C@H](NC(=O)[C@@H]1Cc2ccccc2CN1C(=O)[C@H](CCCNC(=N)N)NC(=O)[C@H](CC1CCCCC1)NC(C)=O)C(=O)N(CCOCCO)Cc1ccccc1 [Compound P98, Ac-Cha-Arg-Tic-Nle-N(Bn)CH2CH2OCH2CH2OH] (Ac-[Cha]R[Tic][Nle]-X2)	Arbitrary units	121

Now consider the entry below.
QUERY: # input compound: CSCC[C@H](NC(=O)[C@@H]1Cc2ccccc2CN1C(=O)[C@H](CCCNC(=N)N)NC(=O)[C@H](CC1CCCCC1)NC(C)=O)C(=O)N(C)CCc1ccccc1 [Compound P84, Ac-Cha-Arg-Tic-Met-N(Me)CH2CH2Ph] (Ac-[Cha]R[Tic]M-{N(Me)CH2CH2Ph}) ; wanted: its Stability (Arbitrary units) Human 24 h
RESULT: 131
